system: Fibroblast; experiment: Multiplex assay against human fibroblast; format: toxicity, cell-based; details: 24 h, 1 µM, compound concentration 1 uM, replicate 1
Binning scheme for Population Membrane Permeable-Phenotype (%): lower bin (below 9%), middle bin (9% to below 20%), upper bin (20% or more)

CCCS(=O)(=O)Nc1ccc(F)c(C(=O)c2c[nH]c3ncc(Cl)cc23)c1F
lower bin
CCn1c(=O)c(-c2ccc(-c3cncs3)cc2Cl)cc2cnc(Nc3ccc(N4CCN(C)CC4)cc3)nc21
upper bin
CCCS(=O)(=O)c1nc(NC2CC2)cc(-c2ccc3c(ccn3C3CC(C)(C)NC(C)(C)C3)c2)n1
upper bin
Cc1cc(C)c(S(=O)(=O)N(Cc2ccc(-c3cccc(S(C)(=O)=O)c3)cc2)Cc2ccc(C(F)(F)F)o2)c(C)c1
upper bin
Cn1nc(C(F)(F)F)cc1-c1cnc(N2CCc3cc(S(=O)(=O)Nc4c(F)cc(Cl)cc4F)cc(N4CCCC4=O)c32)nc1
upper bin
CNC(=O)c1ccc(Nc2nc(OC3CCCC3)c3c(-c4ccc5nc(C)oc5c4)c[nH]c3n2)c(OC)c1
upper bin
Cc1cn(-c2cc(NC(=O)c3ccc(C)c(Nc4nccc(-c5cccnc5)n4)c3)cc(C(F)(F)F)c2)cn1
middle bin
COc1cccc2cc(-c3nc([C@H]4CC[C@H](C(=O)O)CC4)n4ncnc(N)c34)[nH]c12
lower bin
NC(=O)c1cccc(-c2cc(Nc3ccc(OC(F)(F)F)cc3)ncn2)c1
lower bin
CN1CCC(=C2c3ccccc3CC(=O)c3sccc32)CC1.O=C(O)/C=C/C(=O)O [KETOTIFEN FUMARATE]
middle bin

Ask | Class (by measured Population Membrane Permeable-Phenotype (%)) for `CCN1CCN(Cc2ccc(Nc3ncc(F)c(-c4cc(F)c5nc(C)n(C(C)C)c5c4)n3)nc2)CC1.CS(=O)(=O)O`
Reply | middle bin

Ask | Classify this molecule: `COc1ccc(-c2ccc3c(N4CCOCC4)nc(N4C[C@@H](C)O[C@@H](C)C4)nc3n2)cc1CO`
Reply | lower bin

Ask | Pick a category. Item: `O=C1NC(=O)C(c2cnc3ccccn23)=C1c1cn2c3c(cc(F)cc13)CN(C(=O)N1CCCCC1)CC2`
Reply | upper bin

Ask | Category lookup for the molecule `Cc1ccc(C(=O)Nc2cccc(C(F)(F)F)c2)cc1Nc1nc(-c2cccnc2)nc2c1cnn2C`
Reply | middle bin

Ask | In plain terms, what class is CCOC(=O)c1c(C)[nH]c2ccc3c(c12)CN1CCc2cc(OC)ccc2C1O3 (configuration not stated) ?
Reply | middle bin

Ask | Category of `O=C(Nc1ccc(-c2ccnc(Nc3ccc(N4CCOCC4)cc3)n2)cc1)[C@@H]1CCCN1` :
Reply | upper bin

Ask | Into which category would you place `C=C1/C(=C\C=C2/CCC[C@]3(C)[C@@H]([C@H](C)/C=C/[C@H](C)C(C)C)CC[C@@H]23)C[C@@H](O)C[C@@H]1O` ?
Reply | upper bin

Ask | Looking at `CCc1cccc(CC)c1NC(=O)c1nn(C)c2c1CCc1cnc(Nc3ccc(N4CCN(C)CC4)cc3OC)nc1-2` , which class would you pick?
Reply | lower bin

Ask | For the record `O=C1N/C(=N/c2ccccc2F)S/C1=C\c1ccc(C(=O)O)cc1` , report the class its Population Membrane Permeable-Phenotype (%) corresponds to.
Reply | upper bin

Ask | Exam item: assign `CCN1CCN(c2ccc(Nc3cc(N(C)C(=O)Nc4c(Cl)c(OC)cc(OC)c4Cl)ncn3)cc2)CC1` to the correct category.
Reply | lower bin

Ask | Category of `CN[C@@H]1C[C@H]2O[C@@](C)([C@@H]1OC)n1c3ccccc3c3c4c(c5c6ccccc6n2c5c31)C(=O)NC4` :
Reply | middle bin

Ask | Entry `O=C(Nc1ccc(Cl)cc1)Nc1cccc(-c2cccc(N3CCCC3)n2)c1` belongs to which category?
Reply | upper bin

Ask | Which class is correct for the following molecule? CN1C2CCC1CC(OC(c1ccc(F)cc1)c1ccc(F)cc1)C2.Cl (configuration not stated)
Reply | upper bin

Ask | Exercise: read the entry `CNc1cc(Oc2cc(C(=O)Nc3cc(N4CCN(C)CC4)cc(C(F)(F)F)c3)ccc2C)ncn1` and state which class it falls under.
Reply | middle bin

Ask | Hello team, could you let me know which band the following molecule falls into: `COC(=N)c1nc2ccc3ncnc(Nc4ccc(OC)cc4F)c3c2s1`
Reply | lower bin

Ask | Field: class (Population Membrane Permeable-Phenotype (%)) — entry: `CCn1cc(-c2ccnc3[nH]c(-c4cccc(CN(C)C)c4)cc23)c(-c2ccc(NC(=O)N(C)C)cc2)n1`
Reply | lower bin

Ask | Class? Entry: `Cl.O=C(c1ccc(Nc2nccc(-c3cc4ccccc4s3)n2)cc1)N1CCC(N2CCCC2)CC1`
Reply | lower bin

Ask | Given `CCOc1cc(C(=O)N2CCC(N3CCN(C)CC3)CC2)ccc1Nc1ncc2c(n1)N(C1CCCC1)c1ccccc1C(=O)N2C` , name the class its Population Membrane Permeable-Phenotype (%) places it in.
Reply | middle bin

Ask | Textbook exercise: identify the category of the molecule given here, `S=C(NCCCc1c[nH]cn1)NCCCN(Cc1ccc(Cl)c(Cl)c1)c1ccc(Br)cn1` , according to its measured value.
Reply | middle bin

Ask | GET /class?item= CN(C)C(=O)C(CCN1CCC(O)(c2ccc(Cl)cc2)CC1)(c1ccccc1)c1ccccc1.Cl [LOPERAMIDE HYDROCHLORIDE]
Reply | middle bin

====

Let's look at some molecules and their measured Growth Rate.
test system: HEK-293T; assay: Incucyte cell viability with HEK293T; type: toxicity, cell-based; settings: human, 0 h, 10 µM, compound concentration 10 uM, replicate number 1, timepoint 0 hours; also: filed as whole numbers so only -1 and 0 and 1 occur
# print the numeric value only

Cl.O=C(O)Cc1cccc(OCCCN(Cc2cccc(C(F)(F)F)c2Cl)CC(c2ccccc2)c2ccccc2)c1
0
O=C1NC(c2ccccn2)Sc2ccccc21 (configuration not stated) [BTZO-4]
1
O=C(NS(=O)(=O)c1ccc(NCC2CCOCC2)c([N+](=O)[O-])c1)c1ccc(N2CCN(Cc3ccc(C(F)(F)F)cc3-c3ccc(Cl)cc3)CC2)cc1Oc1cnc2[nH]ccc2c1 [A-1210227]
0
O=C(Nc1cccnn1)N1CC(C/C=C/c2cncc(Oc3ccc(C(F)(F)F)cn3)n2)C1
0

Tested on HEK-293T, the item OCCn1cc(-c2cnc3nnn(Cc4ccc5ncccc5c4)c3n2)cn1 [PF-04217903] showed Growth Rate equal to 1

Field Growth Rate (HEK-293T), entry `C[C@@H](c1cccc(C#N)c1)n1cc(Cl)cc(C(N)=O)c1=N.Cl` : 0

Field Growth Rate (HEK-293T), entry `Cl.O=C([C@@H](Cc1cccc(C(F)(F)F)c1)NS(=O)(=O)c1cc(F)c2c(c1)CCNC2)N1CCCC1` : 0

====

test system: U2OS; assay: Multiplex assay against U2OS; assay type: toxicity, cell-based; conditions: human, 48 h, 10 µM, compound concentration 10 uM, replicate 1
reported.metric: Population Tubulin-Different-Phenotype (%)
Express your answer in %, writing the number without its unit.

Examples with their reported Population Tubulin-Different-Phenotype (%) follow.
CCCn1c(=O)c2[nH]c(-c3cnn(Cc4cccc(C(F)(F)F)c4)c3)nc2n(CC)c1=O
47
O=C(Cc1ccc(-c2ccc(OCCN3CCOCC3)cc2)cn1)NCc1ccccc1
22
O=C1NC(=O)C(c2cnc3ccccn23)=C1c1cn2c3c(cc(F)cc13)CN(C(=O)N1CCCCC1)CC2
100
CCOC(=O)c1c(C)[nH]c2ccc3c(c12)CN1CCc2cc(OC)ccc2C1O3 (centres undefined)
100

// sample `O=C(Nc1ccc(-n2nc(-c3cccnc3)cc2C(F)(F)F)cn1)c1ccc(-c2ccccc2)c(F)c1` , its Population Tubulin-Different-Phenotype (%) was 11

Input `Cl.Oc1ccc2c3c1O[C@H]1c4[nH]c5c(c4C[C@@]4(O)[C@@H](C2)N(CC2CC2)CC[C@]314)C[C@@]1(O)[C@H]2Cc3ccc(O)c4c3[C@@]1(CCN2CC1CC1)[C@H]5O4` . Output Population Tubulin-Different-Phenotype (%): 4

Record summary for `CN[C@@H]1C[C@H]2O[C@@](C)([C@@H]1OC)n1c3ccccc3c3c4c(c5c6ccccc6n2c5c31)C(=O)NC4` : reported Population Tubulin-Different-Phenotype (%) = 100

Value of measured Population Tubulin-Different-Phenotype (%) for the entry CN1CCC(=C2c3ccccc3CC(=O)c3sccc32)CC1.O=C(O)/C=C/C(=O)O [KETOTIFEN FUMARATE] : 72

Population Tubulin-Different-Phenotype (%) reading for `Cc1ccc(C(=O)Nc2cccc(C(F)(F)F)c2)cc1Nc1nc(-c2cccnc2)nc2c1cnn2C` : 100

The compound listed as `O=C(Nc1ccc(Cl)cc1)Nc1cccc(-c2cccc(N3CCCC3)n2)c1` has a reported Population Tubulin-Different-Phenotype (%) of 33

The recorded Population Tubulin-Different-Phenotype (%) for `CN1CCN(C(=O)C(C)(C)c2ccc(C(=O)Nc3cn4cc(-c5ccncc5)ccc4n3)cc2)CC1` is 100

response.value for `CCc1cccc(CC)c1NC(=O)c1nn(C)c2c1CCc1cnc(Nc3ccc(C(=O)NC4CCN(C)CC4)cc3OC(F)(F)F)nc1-2` (field: Population Tubulin-Different-Phenotype (%)) = 98

Sample `Cl.O=C(c1ccc(Nc2nccc(-c3cc4ccccc4s3)n2)cc1)N1CCC(N2CCCC2)CC1` ; Population Tubulin-Different-Phenotype (%) observed: 100
